System: HCT-8 host cells (Hs18S)
Conditions: primary screening at 10 uM, from Hs18S ΔCT
Classification field: Criterion met = Cytotoxicity (%) at or over 10%; Criterion not met = Cytotoxicity (%) under 10%.

Reported Cytotoxicity (%) reaches at least 10% for CC(=O)OCC1=C(C(=O)O)N2C(=O)[C@@H](N)[C@H]2SC1 ?
Criterion met

Is reported Cytotoxicity (%) greater than or equal to 10% here: COc1ccc2c(c1O)-c1c(OC)c(OC)cc3c1[C@H](C2)N(C)CC3 [S-ISOCORYDINE (+)]
Criterion not met

Does the reported Cytotoxicity (%) for COc1cc2cc3c4cc(OC)c(OC)cc4cc[n+]3c(C)c2cc1OC.[Cl-] [CORALYNE CHLORIDE] fall at or above the 10% mark?
Criterion not met

Decide: Cytotoxicity (%) of CN[C@@H]1[C@@H](O[C@H]2O[C@H](CO)[C@@H](N)[C@H](O)[C@H]2O)O[C@H]2C[C@@H](N)[C@@H](O[C@H]3[C@H](O)[C@@H](O)[C@H](N)C[C@@H]3N)O[C@@H]2[C@@H]1O.O=S(=O)(O)O [APRAMYCIN SULFATE] >= 10%?
Criterion not met

State whether the measured Cytotoxicity (%) reaches 10%, counting equality as reaching it, for CC(=O)O[C@@H]1C[C@H]2C(C)(C)C(=O)C=C[C@]2(C)[C@H]2CC[C@]3(C)C(=CC(=O)O[C@H]3c3ccoc3)[C@@]21C
Criterion met

Is reported Cytotoxicity (%) greater than or equal to 10% here: CC1=CC(=O)CC(C)(C)C1(O)/C=C/C(C)=C\C(=O)O (racemic) [ABSCISIC ACID (cis,trans; +/-)]
Criterion met
